- testProtocol: Hydrolysis kinetics in buffers at room temperature by 19F-NMR, 1 mg/ml (Method 9)
- Type: physicochemical
- particulars: Phosphate 10 mM pH 6.0
propertyLabel: Hydrolysis at 1 mg/ml at room Temperature (NMR) T50 (50% degradation time) (h)
// note: answer is a bare numeric in h

compound: COCC(C)(C)OC(=O)C(F)(F)ON1C(=O)N2C[C@H]1CC[C@H]2C(N)=O [Example 7]
measurementUnit: h
measValue: 20
//
compound: COCC(C)(COC)OC(=O)C(F)(F)ON1C(=O)N2C[C@H]1CC[C@H]2C(N)=O [Example 10]
measurementUnit: h
measValue: 16
//
compound: COCC1(OC(=O)C(F)(F)ON2C(=O)N3C[C@H]2CC[C@H]3C(N)=O)CCOCC1 [Example 11]
measurementUnit: h
measValue: 16

Query string: Could you tell me which Hydrolysis at 1 mg/ml at room Temperature (NMR) T50 (50% degradation time) is on file for CC1(OC(=O)C(F)(F)ON2C(=O)N3C[C@H]2CC[C@H]3C(N)=O)CCOCC1 [Example 8] ?
Result string: 21

Query string: Could you tell me which Hydrolysis at 1 mg/ml at room Temperature (NMR) T50 (50% degradation time) is on file for COCCOCC(C)(C)OC(=O)C(F)(F)ON1C(=O)N2C[C@H]1CC[C@H]2C(N)=O [Example 9] ?
Result string: 17
